Assay: soluble on expression in E. coli; label from the status in PepcDB or PDB records
Assay readout: soluble on expression in E. coli

[[record]]
entry_sequence = "MRVREPAVAGTFYPKDKEELNKLMDLLCGFEPKEKIKPKAILVPHAGYIYSGKTACEVYKRIEIPEKVVLLGPNHTGLGKPISVYSGDAWETPYGVVEIDGELREKILKYPYANPDEYAHLYEHSLEVQLPFLQRYARREFKILPIVVTFVEYEVAKDFGRFLGEVLKEEDALIVISSDMSHYVPAEEARKKDEILISAMERLNTEELYFKAVQYNITMCGVVPAVVGIESAKVLGATKGIVVDYSNSGDTTGDYSQVVAYLGMIFLLEHHHHHH"
assay_readout = "soluble on expression in E. coli"
observed_result = "not soluble"

[[record]]
entry_sequence = "MSSKPRHDWFQSETDVTLTILKRGVPLDDCSVSLSDNNTLTVKQCDEILFYGQLSGQVKKDDLTVKCTAAKVEVRLPKFARNERWASLLKDGQGVAASVQSVSPNPESAPTTTVKKNWDAIEKQAVKEEEDESLEGDAAVNKMFRKMYNDASDDVRRAMMKSYSESNGTVLSTNWSEIGQKKTECQPPACMEYKEYEK"
assay_readout = "soluble on expression in E. coli"
observed_result = "not soluble"

[[record]]
entry_sequence = "MTCLSRDWATAQRLVEWALASTRCECFNVDSNFMAGLCLVENPTKQHYSFEVRKQVVDRFNAGQSKMDLAREFGLSSDQLVSSWVRAWRAGGDEALRPKPKGRPKGSASSKPLTEEDRLRREVEKLRAENAYLKKLRDLRNQRRS"
assay_readout = "soluble on expression in E. coli"
observed_result = "not soluble"

